System: A549/ATCC NSCLC
TEST_DETAILS: NCI-60 one-dose screen, 48 h (100 = growth as untreated, 0 = no growth, -100 = all killed)
DETAILS: 10 µM unless noted
Compounds without any hit were thinned out: in the full panel of roughly 83,000, 20% have a hit.
For each record, write down the corresponding growth.
Answer with a number only, understood to be in %.

The reported value for `C=C1C(=O)O[C@H]2[C@H]1CC/C(COC(=O)c1cc3cc(F)ccc3[nH]1)=C\CC[C@@]1(C)O[C@@H]21` in terms of growth is -61.9

The reported value for `O=C(Cn1nnc2ccccc21)Nc1ccc(-c2nc3ccccc3s2)cc1` in terms of growth is 93.6

The reported value for `Fc1ccc(CNc2c3ccccc3nc3ccccc23)cc1` in terms of growth is 23.7

The reported value for `C=C1C(=O)O[C@H]2[C@H]1CC/C(CNC(=O)c1cc3ccccc3[nH]1)=C\CC[C@@]1(C)O[C@@H]21` in terms of growth is 9.2

The reported value for `COc1ccc(C/C(C)=C(\c2ccc(O)cc2)c2ccc(OCCN3CCCC3)cc2)cc1` in terms of growth is 98

====

Tested on: BT-549 breast
TEST_DETAILS: NCI-60 one-dose screen, 48 h (100 = growth as untreated, 0 = no growth, -100 = all killed)
DETAILS: 10 µM unless noted
Experimental: Growth inhibition of the BT-549 human tumor cell line is measured as a screen for anti-cancer activity. Cells are grown in 96 well plates and exposed to the test compound for 48 hours. Compounds are tested at a single concentration, which is 10^-5 M for most compounds. The reported endpoint is percent growth (GI% or GIPRCNT), where numbers from 0 - 100% represent growth inhibition, and numbers from -100% - 0 represent cell death. For example, a value of 40 represents 60% growth inhibition. […]
Compounds without any hit were thinned out: in the full panel of roughly 83,000, 20% have a hit.
MEASURED_ATTRIBUTE: growth (%)
Answer with a number only, understood to be in %.

The reported value for `O=[N+]([O-])/C(=C\c1ccco1)c1ccccc1Cl` in terms of growth is 9.05

The reported value for Cc1ccc2[nH]c(=O)c3c(c2c1)OC(N)=C(C#N)C31C(=O)c2cccc3cccc1c23 (stereo unspecified) in terms of growth is 102

The reported value for `CCN(CC)c1ccc(/C=N/NC(=O)c2ccc(Nc3ccnc(C(F)(F)F)c3)cc2)c(O)c1` in terms of growth is -2.72

The reported value for `Clc1nccc2c(-c3csc(-c4c[nH]c5ccccc45)n3)c[nH]c12` in terms of growth is 65.7

The reported value for `COc1ccc(C/C(C)=C(/c2ccc(OCCN3CCCCCC3)cc2)c2ccc(OC(=O)NCc3ccccc3)cc2)cc1` in terms of growth is 100

The reported value for `CC[C@@H](c1ccc2cc(OC)ccc2c1)C(C)(C)C(=O)F` in terms of growth is 19.9

The reported value for `O=c1nc(Nc2nc3ccccc3s2)[nH]c(=O)c2ccccc12` in terms of growth is 97.5

The reported value for `CCCCCSB(SCCCCC)c1ccccc1` in terms of growth is 105

The reported value for `O=C1NC(=O)c2c1c1c3ccccc3[nH]c1c1oc3cc(Br)ccc3c21` in terms of growth is 81.3

The reported value for `CCOc1ccc(NC(=O)c2cc(OC)c(OC)c(OC)c2)cc1` in terms of growth is 44.5

The reported value for `Cn1cc(-c2nonc2-c2c[nH]c3ccccc23)c2ccccc21` in terms of growth is 18.7

====

Tested on: SK-MEL-5 melanoma
TEST_DETAILS: NCI-60 one-dose screen, 48 h (100 = growth as untreated, 0 = no growth, -100 = all killed)
DETAILS: 10 µM unless noted
Compounds without any hit were thinned out: in the full panel of roughly 83,000, 20% have a hit. Active and inactive are the calls of the source. Rule for the calls: active = growth percent below 10; inactive = the rest.
For each record, write down the corresponding growth.

The reported value for `COc1ccc(Cl)cc1Nc1nc(C(F)(F)F)ccc1C(=O)N/N=C/c1ccccc1Cl` in terms of growth is 3.59% (active)

The reported value for `C=CCCC(=O)N1C=CC(=O)[C@H](O)[C@@H]1/C=C/c1ccccc1` in terms of growth is 0.433% [100 µM] (active)

The reported value for `Cc1ccc(-c2nc(C(Cl)Cl)nc3cc(C)nn23)cc1` in terms of growth is 44.8% (inactive)

The reported value for `C/C(=C(\c1ccc(OCCN2CCCCCC2)cc1)c1ccc(OC(=O)Cc2ccccc2)cc1)c1ccc(Cl)cc1` in terms of growth is 40.1% (inactive)

The reported value for `O=C(N=Nc1c(O)[nH]c2ccccc12)Nc1ccc(Cl)cc1` in terms of growth is 90.7% (inactive)

The reported value for COc1ccc(C2=NN(C(=O)c3cc(OC)c(OC)c(OC)c3)C(c3ccc(N(C)C)cc3)C2)cc1 (stereo not given) in terms of growth is 5.24% (active)

The reported value for `CCC/C(=N\NC(N)=O)C(OC)OC` in terms of growth is 100% (inactive)

The reported value for CC(=O)N/C(=C1/OC(C(O)C(O)C(O)CO)CN1C)[P+](c1ccccc1)(c1ccccc1)c1ccccc1 (stereo not given) in terms of growth is 95.5% (inactive)

The reported value for `CCN1CCN(CC(=O)Nc2nc3ccc(NCc4ccc(Br)cc4)cc3s2)CC1` in terms of growth is 47.6% (inactive)

The reported value for `Oc1c(I)cc(-c2nc3ccccc3s2)cc1CN(Cc1ccccn1)Cc1ccccn1` in terms of growth is -78.3% (active)

====

System: M14 melanoma
TEST_DETAILS: NCI-60 one-dose screen, 48 h
DETAILS: 10 µM unless noted
Compounds without any hit were thinned out: in the full panel of roughly 83,000, 20% have a hit. Activity calls are given as the source filed them. How the source made its calls: active means growth percent below 10; inactive means the rest.
In this exercise, the only acceptable responses are active, inactive

Recorded call for `COc1cc(/C=N/Nc2ccccc2F)cc(OC)c1OC` ?
inactive

Recorded call for `O=C(Cn1cc(CN2C(=O)c3ccccc3S2(=O)=O)nn1)Nc1cccc(Cl)c1` ?
inactive

Recorded call for `S=c1[nH]c2cc(Cl)ccc2o1` ?
inactive

Recorded call for `O=C1NC(=C(Cl)Cl)/C(=N/S(=O)(=O)N2CCCCC2)N1` ?
inactive

Recorded call for `CCCCCCCCn1ccc2cc(NC(=O)Cn3cc(CN4CCC(C)CC4)nn3)ccc21` ?
active

Recorded call for `Cn1c(=O)c2c(nc(NC3=NS(=O)(=O)c4ccccc43)n2Cc2ccccc2)n(C)c1=O` ?
inactive

Recorded call for `COc1cc2oc(-c3cccc(NC(=O)c4ccc5c(c4)OCO5)c3)cc(=O)c2c(OC)c1OC` ?
inactive

Recorded call for `COc1ccc(NC(=O)c2ccc(C(=O)Nc3ccc(OC)cc3OC)cc2)c(OC)c1` ?
inactive

Recorded call for `C=C1C(=O)O[C@H]2[C@H]1CC/C(CNC(=O)c1cc3ccccc3[nH]1)=C\CC[C@@]1(C)O[C@@H]21` ?
active

Recorded call for `COc1ccc2c(c1)c(-c1nc(-c3cn(C)c4ncccc34)cs1)cn2CCO` ?
inactive

Recorded call for `COc1ccc2c(c1)c(-c1cc(-c3cn(C)c4ccc(OC)cc34)on1)cn2C` ?
inactive

Recorded call for O=C1CCC(C(=O)NN(c2ccccc2)c2ccccc2)N1 (centres undefined) ?
inactive

Recorded call for `Cc1cc(C)cc(Nc2ccc([N+](=O)[O-])c(NCCN3CCOCC3)n2)c1` ?
active

Recorded call for CO[C@H](C(=O)[C@@H](O)[C@@H](C)O)[C@@H]1Cc2cc3cc(O[C@H]4C[C@@H](O[C@H]5C[C@@H](O)[C@H](O)C(C)O5)[C@H](O)C(C)O4)c(C)c(O)c3c(O)c2C(=O)[C@H]1O[C@H]1C[C@@H](O[C@H]2C[C@@H](O[C@H]3C[C@@H](OC)[C@H](O)C(C)O3)[C@@H](O)C(C)O2)C(O)(O)C(C)O1 (some centres undefined) ?
inactive

Recorded call for `COc1cc2ncnc(Nc3ccc(F)c(Cl)c3)c2cc1OCC(=O)N1CCN(c2ccc(F)cc2)CC1` ?
inactive

Recorded call for `CCc1cccc(Sc2cc(C(=O)N3Cc4ccc(OCCN(C)C)cc4C3)ccc2O)c1` ?
inactive

Recorded call for `COc1ccc2cc(-c3cnc4nonc4n3)ccc2c1` ?
inactive

Recorded call for `COc1ccc(/C=C/C(=O)c2cc3c(N)c(C(=O)Nc4ccccc4C)sc3nc2C)cc1` ?
active

Recorded call for `CCOc1ccc(/C=N\N=C\c2ccc(OCC)cc2)cc1` ?
inactive

====

Test system: OVCAR-4 ovarian
TEST_DETAILS: NCI-60 one-dose screen, 48 h
DETAILS: 10 µM unless noted
Description: Growth inhibition of the OVCAR-4 human tumor cell line is measured as a screen for anti-cancer activity. Cells are grown in 96 well plates and exposed to the test compound for 48 hours. Compounds are tested at a single concentration, which is 10^-5 M for most compounds. The reported endpoint is percent growth (GI% or GIPRCNT), where numbers from 0 - 100% represent growth inhibition, and numbers from -100% - 0 represent cell death. For example, a value of 40 represents 60% growth inhibition. […]
This is part of a sample that, as a whole, favours compounds with a hit. Of some 83,000 tested, about 20% had one in any assay. Active and inactive are the calls of the source. The calls were made as follows: active = growth percent below 10; inactive = the rest.
In this exercise, the only acceptable responses are active, inactive

Recorded call for `COc1ccc(C2=C/C(=C\c3ccc(Cl)cc3)C(=O)N2/N=C/c2ccc(Cl)cc2)cc1` ?
inactive

Recorded call for `CC(C)[C@@]12C[C@@H](OC(=O)COC(=O)c3ccccc3)[C@@](C)(O1)[C@@H]1CC[C@@H](C)[C@H]1[C@@H]2OC(=O)/C=C/c1ccccc1` ?
inactive

Recorded call for CCn1cc(C(=O)N/N=C/c2ccc(Br)cc2)c(=O)c2cc(F)c(N3CCNC(C)C3)c(F)c21 (centres undefined) ?
inactive

Recorded call for `CCOC(=O)c1c2c(n3c1NCC3)-c1ccccc1C2=O` ?
inactive

Recorded call for `COc1ccc2c(c1)c(-c1nonc1-c1cn(C)c3ccc(OC)cc13)cn2C` ?
inactive

Recorded call for `Oc1c(CN2CCCC2)cc(COCc2ccccc2)c2cccnc12` ?
inactive

Recorded call for CC(CN)[C@@H]1CC[C@]2(CO)CC[C@]3(C)[C@H](CC[C@@H]4[C@@]5(C)CCC(N)C(C)(C)[C@@H]5CC[C@]43C)[C@@H]12 (some centres undefined) ?
active

Recorded call for `CCCCCCCC/C=C\CCCCCCCCOc1ccc(CC(=O)NCC[N+](C)(C)C)cc1` ?
inactive

Recorded call for `CC(C)CCSc1nc(Nc2ccccc2)c(C#N)c(-c2ccccc2)n1` ?
active
